Would you kindly list EC50 for each of these molecules?
System: DLD-1 colon cancer cells
Assay: MTT viability assay, DLD-1
Assay type: cell-based
Conditions: Homo sapiens, MTT, Table 1, read-out: EC50 (nM) DLD-1
# unit: nM | format: bare number

According to the records, this molecule CS(=O)(=O)N1CCN(C(=O)CNC(=O)/C=C/c2ccc(Cl)c(Cl)c2)CC1 [Example 9] displays EC50 of 1.7

In plain terms, CN(C(=O)CNC(=O)/C=C/c1cccc(Cl)c1)C1CCS(=O)(=O)CC1 [ML264, reference compound] has a documented EC50 of 13

###

Tested on: DLD-1 colon cancer cells
Test: MTT viability assay, DLD-1
Format: cell-based
Details: Homo sapiens, Table 2, read-out: Approximate potency (EC50 · mol/L) (DLD1, MTT assay)
metric-name: EC50
Remember to quote the unit after the number.

Short answer for `CS(=O)(=O)N1CCC(CNC(=O)CNC(=O)/C=C/c2cccc(Cl)c2)CC1` : EC50 was 2730 nM

Recorded EC50 (compound `CS(=O)(=O)N1CCN(C(=O)CNC(=O)/C=C/c2ccc(C(F)(F)F)c(Cl)c2)CC1` ): 315 nM

The recorded EC50 for `CS(=O)(=O)N1CCN(C(=O)CNC(=O)/C=C/c2cccc(Cl)c2)CC1` is 16.3 nM

Note to self: EC50 recorded for `CS(=O)(=O)N1CCN(C(=O)CNC(=O)/C=C/c2ccc(F)c(F)c2)CC1` was 41 nM

Data point: `CS(=O)(=O)NCC1CCN(C(=O)CNC(=O)/C=C/c2cccc(Cl)c2)CC1` ; EC50 = 140 nM

Query `O=C(/C=C/c1cccc(Cl)c1)NCC(=O)N1CCN(S(=O)(=O)C2CCCCC2)CC1` yields EC50 of 347 nM

GET /value?item= `CS(=O)(=O)N1CCN(C(=O)CNC(=O)/C=C/c2ccc(F)c(Cl)c2)CC1` &field=EC50 returns 25.3 nM

Recorded EC50 (compound `CS(=O)(=O)N1CCN(C(=O)CNC(=O)/C=C/c2cccc(Br)c2)CC1` ): 73.5 nM

###

Test system: DLD-1 colon cancer cells
Test: MTT viability assay, DLD-1
Type: cell-based
Details: Homo sapiens, Table 2, read-out: Approximate potency (EC50 · mol/L) (DLD1, MTT assay)
metric-name: pEC50
// pEC50 here means minus log10 of the molar concentration (mol/L)

The reported pEC50 value, DLD-1 colon cancer cells, for `CC(C)CS(=O)(=O)N1CCN(C(=O)CNC(=O)/C=C/c2cccc(Cl)c2)CC1` reads 6.49

Record `CS(=O)(=O)N1CCN(C(=O)CNC(=O)/C=C/c2ccc3c(c2)OCO3)CC1` has DLD-1 colon cancer cells pEC50 equal to 7.82

// molecule `COc1ccc(/C=C/C(=O)NCC(=O)N2CCN(S(C)(=O)=O)CC2)cc1Cl` , assay DLD-1 colon cancer cells, pEC50 value: 7.20

Entry `Cc1ccc(/C=C/C(=O)NCC(=O)N2CCN(S(C)(=O)=O)CC2)cc1Cl` , tested on DLD-1 colon cancer cells, has a reported pEC50 of 8.44

###

System: human KLF5 promoter
Test: KLF5 promoter activity luciferase assay in DLD-1/pGL4.18hKLF5p cells
Assay type: cell-based
Conditions: Homo sapiens, DLD-1; Table 2; read-out: Approximate potency (EC50 · mol/L) (luciferase)
pEC50: −log10 of the molar value.
Kindly return t if reported pEC50 is no lower than 7; return f if it is lower.

INPUT: Quick check: does CS(=O)(=O)N1CCN(C(=O)CNC(=O)/C=C/c2ccc3c(c2)OCO3)CC1 [Example 18] have pEC50 greater than or equal to 7?
OUTPUT: t

INPUT: Hi, just wondering whether CS(=O)(=O)N1CCN(C(=O)CNC(=O)/C=C/c2ccc(F)c(Cl)c2)CC1 [Example 11] shows pEC50 of 7 or higher.
OUTPUT: t

INPUT: # check: pEC50 of CS(=O)(=O)NCC1CCN(C(=O)CNC(=O)/C=C/c2cccc(Cl)c2)C1 (stereo not drawn) [Example 3] is greater than or equal to 7
OUTPUT: f

INPUT: Tell me whether pEC50 is at least 7 here: CS(=O)(=O)N1CCN(C(=O)CNC(=O)/C=C/c2ccc(Cl)c(Cl)c2)CC1 [Example 9]
OUTPUT: t

INPUT: Entry CS(=O)(=O)N1CCN(C(=O)CNC(=O)/C=C/c2ccc(F)c(F)c2)CC1 [Example 14] : is its pEC50 no less than 7?
OUTPUT: t

The reported measurements were obtained from patent US12486227B2.
